# test_system: T1, recombinant human activated Factor VII (FVIIa) (human, UniProt P08709 61-212; P08709 213-466, ten glutamate residues of the Gla domain may be gamma-carboxylated)
# T1 construct: chains tethered by a disulfide bond; also called Factor VIIa; rFVIIa
# T1 sequence 1: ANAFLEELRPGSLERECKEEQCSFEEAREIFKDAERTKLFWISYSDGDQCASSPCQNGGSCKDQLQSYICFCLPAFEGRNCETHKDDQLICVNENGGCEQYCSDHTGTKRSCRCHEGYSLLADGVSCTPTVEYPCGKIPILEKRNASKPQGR
# T1 sequence 2: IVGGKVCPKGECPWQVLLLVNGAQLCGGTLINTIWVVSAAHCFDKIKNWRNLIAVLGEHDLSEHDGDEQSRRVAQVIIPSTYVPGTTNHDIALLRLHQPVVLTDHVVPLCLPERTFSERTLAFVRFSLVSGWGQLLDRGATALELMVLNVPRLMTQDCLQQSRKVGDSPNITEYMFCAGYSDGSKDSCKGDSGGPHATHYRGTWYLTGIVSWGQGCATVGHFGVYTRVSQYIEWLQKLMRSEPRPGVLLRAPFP
# test_method_notes: BLI (Fortebio)
# Description: All steps were performed in running buffer (20 mM HEPES buffer (pH 7.4), 150 mM NaCl, 5 mM CaCl2, 0.03% Tween 20, 1 mg/ml IgG-free BSA) at […] Antibodies were captured on anti-human tips (AHC, Fortebio) for 3 min at a concentration of 10 ug/ml. […] Following this, association was monitored for 3 min using four different concentrations of VIIa (25 nm, 50 nM, 100 nM, and 200 nM), followed by a 3 mi dissociation. Sensorgrams were analysed using Fortebio data analysis software.
pKd: −log10 of the molar value.
Please mark true if the recorded pKd is equal to or greater than 8, and false if it falls below.

These solved cases illustrate the format of a correct answer.
>>> discrete_label("VH SEQ ID NO 514 / VL SEQ ID NO 438 (antibody, IgG4, V domains shown, humanized 11F2; IgG4 S228P/kappa) VH: QVQLQESGPGLVEPSDTLSLTCAVSGYSITSDSAWSWIRQPPGKKLEWIGYIQYSGSTNYNPSLKSRVTMSRDTSKNQFSLKLSSVTALDTAVYYCARSVNYYGNSFAVGYWGQGTLVTVSS VL: EIVLTQSPATLSLSPGERATLSCRASQGVSDYLAWYQQKPGQAPRLLIKYASQPATGIPARFSGSGSGTDFTLTISSLEPEDVAVYYCQNGHSFPLTFGQGTKLEIK")
"true"
>>> discrete_label("VH SEQ ID NO 626 / VL SEQ ID NO 462 (antibody, IgG4, V domains shown, humanized 11F2; IgG4 S228P/kappa) VH: QVQLQESGPGLVKPSQTLSLTCTVSGYSISSDSAWSWIRQPPGKGLEWIGYIQYSGSTNYNPSLKSRVTISRDTSKNQFSLKLSSVTAADTAVYYCARSVNYYGNSFAVGPWGQGTLVTVSS VL: EIVLTQSPATLSLSPGERATLSCRASQGVSDYLHWYQQKPGQAPRLLIKYASQPATGIPARFSGSGSGTDFTLTISSLEPEDFAVYYCQNGHSFPLTFGAGTKLEIK")
"true"
>>> discrete_label("VH SEQ ID NO 618 / VL SEQ ID NO 318 (antibody, IgG4, V domains shown, humanized 11F2; IgG4 S228P/kappa) VH: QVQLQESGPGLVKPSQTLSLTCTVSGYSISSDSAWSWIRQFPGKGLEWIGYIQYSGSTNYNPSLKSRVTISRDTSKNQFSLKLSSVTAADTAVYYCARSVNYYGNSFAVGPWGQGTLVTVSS VL: EIVLTQSPATLSLSPGERATLSCRASQGISDYLHWYQQKPGEAPRLLIKYTSQPATGIPARFSGSGSGTDFTLTISSLEPEDFAVYYCQNGHSFPLTFGQGTKLEIK")
"true"

Let's switch to this binder now.
Given the entry VH SEQ ID NO 554 / VL SEQ ID NO 494 (antibody, IgG4, V domains shown, humanized 11F2; IgG4 S228P/kappa) VH: QVQLQESGPGLVKPSDTLSLTCAVSGYSISSDSAWSWIRQFPGKGLEWIGYIQYSGSTNYNPSLKSRVTMSVDTSKNQFSLKLSSVTALDTAVYYCARSVNYYGNSFAVGPWGQGTLVTVSS VL: EIVLTQSPATLSLSPGERATLSCRASQGVSDYLHWYQQKPGQAPRLLIKYASQPATGIPARFSGSGSGTDFTLTISSLEPEDVAVYYCQNGHSFPLTFGQGTKLEIK , answer whether its pKd meets or surpasses 8.
false
